Here, each record is paired with measured growth inhibition data.
- assay explanation: NCI Yeast Anticancer Drug Screen. Data for the mec2-1 strain (AID 157)
- condition context: S. cerevisiae mec2-1 strain, at 50.0 µM, hits give high values
The panel holds about 79,000 compounds, 15% with a hit somewhere; the sample as a whole holds those more often. Calls of active or inactive are those of the source. Cut-off read from the data, not from the text of the source: active = growth inhibition above about 70%; inactive = the rest.

Some solved cases for reference:
CC1=CC[N+](C)(C)C(C(N)=O)C1 (stereo not drawn)    -12.8% (inactive)
O=C(CBr)c1cc(-c2ccc(Cl)cc2)nc2c(-c3ccccc3)cccc12    1.2% (inactive)
CN(/C=C1\CCCCC1=O)c1ccccc1    -17.2% (inactive)
CCN(CC)c1nc(Cl)nc(C(N)=O)c1N    -8.25% (inactive)
COc1cc(OC)c(NC(=O)ON2C(=O)c3ccccc3C2=O)cc1Cl    -1.75% (inactive)

According to the records, this compound CC[C@@]12C=CC(=S)N(CCSc3ccccc3)[C@@H]1c1c(n(S(=O)(=O)c3ccc(OC)cc3)c3ccccc13)CC2 displays growth inhibition of -1.2% (inactive)

According to the records, this compound COC(=O)C1(C(C(=O)c2ccccc2)c2ccccc2)NC(=S)NC(=O)C1C#N (stereo not drawn) displays growth inhibition of 10.2% (inactive)

According to the records, this compound CC1C(=O)C(O)CC2C1(C)CCC1C2(C)CCC2(C)C3CC(C)(C)CCC3(C)CCC12C (stereo not drawn) displays growth inhibition of -2.6% (inactive)

---

- assay explanation: NCI Yeast Anticancer Drug Screen. Data for the mec2-1 strain (AID 157)
- condition context: S. cerevisiae mec2-1 strain, at 50.0 µM
The panel holds about 79,000 compounds, 15% with a hit somewhere; the sample as a whole holds those more often. The source made the active and inactive calls. Rule as the data show it: active = growth inhibition above about 70%; inactive = the rest.
Pick one and only one: 1 (yes) for active, 0 (no) for inactive

Past entries and their recorded results:
O=C1C(NS(=O)(=O)c2ccccc2)=C(n2cnc3ccccc32)C(=O)c2ccccc21    0 (no)
N#CC(NC(=O)NCCCl)c1ccccc1 (stereo not drawn)    0 (no)
CSC(=N\N=C(/C)c1ccc(Br)cc1)/N=C/N(C)C    0 (no)
O=c1[nH][nH]c(=O)n2c1cc1oc(-c3ccccc3)cc12    0 (no)
COc1cc(-c2ccc(Br)[nH]2)[nH]c1C=NCC(C)C    1 (yes)
CCC(=O)c1ccc2ccccc2c1    0 (no)

I'd appreciate the recorded outcome for COc1cccc(NC(=O)NCCN(C)c2ccccc2)c1 from this test.
0 (no)

I'd appreciate the recorded outcome for O=C1CCCCC1CN1CCCC1 (stereo not drawn) from this test.
0 (no)

I'd appreciate the recorded outcome for CN(C)N=Nc1ccc(C(=O)N/N=C/c2ccc([N+](=O)[O-])cc2)cc1 from this test.
0 (no)

I'd appreciate the recorded outcome for COC(OC)c1cccc2c1C(=O)CCC1(O)c3ccccc3C1C2 (stereo not drawn) from this test.
0 (no)

I'd appreciate the recorded outcome for O=C1C2=Cc3ccccc3OC2(O)Oc2ccccc21 (stereo not drawn) from this test.
0 (no)

I'd appreciate the recorded outcome for CC1NC(=O)CC(c2ccccc2)N(N=O)C1c1ccccc1 (stereo not drawn) from this test.
0 (no)

I'd appreciate the recorded outcome for O=C(NCc1ccccc1)C(c1ccccc1)c1ccccc1 from this test.
0 (no)

---

- assay explanation: NCI Yeast Anticancer Drug Screen. Data for the rad50 strain (AID 155);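 note: 0% = growth of vehicle-only cultures of the same strain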
- condition context: S. cerevisiae rad50 strain growth inhibition; at 50.0 µM; hits give high values
About 79,000 compounds went through this panel and 15% of them were active in at least one assay; those are over-represented in the sample as a whole.
Here, each record is paired with measured growth inhibition data.
Numeric only. Scale: %

Some solved cases for reference:
CC(=O)/C=C/C1=C(C)CCCC1(C)C (tested in a mixture with another compound)    19.7
Cc1cc2c(c(C(=O)NCC(=O)O)c1)Oc1c(cc(C)cc1C(=O)NCC(=O)O)S2    -17
C/C(=C/c1ccccc1)C(=O)O    -3.8
CCO/C=C1/N=C(c2ccccc2Cl)OC1=O    10.2
Cc1cc(C(C)(C)CC(=O)O)cc(C)c1C    60.6

# context switch: different molecule, same growth inhibition
According to the records, this molecule CN(O)C(=O)c1ccccc1 displays growth inhibition of 5.45
